tested on: SK-MEL-28 melanoma; test: NCI tumour cell line growth inhibition, 48 h
Provide the reported TGI of each item.

[Q] Lab note: need TGI with SK-MEL-28 melanoma for entry O=C(O)c1ccc(C2COc3ccc(Cl)cc3C2)cc1 (centres undefined) , please look it up.
[A] > 100 µM

[Q] Lab note: need TGI with SK-MEL-28 melanoma for entry OCc1ccc(N2CCCC2c2ccccc2)cc1Cl (centres undefined) , please look it up.
[A] 24.6 µM

[Q] Lab note: need TGI with SK-MEL-28 melanoma for entry O=C1c2cccnc2C(=O)c2c1c(C(=O)NCCCN1CCCCC1)c1ccccn21 , please look it up.
[A] 10.5 µM

[Q] Lab note: need TGI with SK-MEL-28 melanoma for entry O=C(O)CN1CCN(CC(=O)O)CC(=O)[O][Hg][O]C(=O)C1 , please look it up.
[A] 34.8 µM

[Q] Lab note: need TGI with SK-MEL-28 melanoma for entry CCN1C(=O)c2cc(OC)c(OC)cc2C(=O)C12OC(=O)c1cc3c(cc12)OCO3 (centres undefined) , please look it up.
[A] > 100 µM

[Q] Lab note: need TGI with SK-MEL-28 melanoma for entry O=C1C(=C([O-])c2ccccc2)C(=O)c2ccccc21.O=C1C(=C([O-])c2ccccc2)C(=O)c2ccccc21.[Fe+2] , please look it up.
[A] > 100 µM

[Q] Lab note: need TGI with SK-MEL-28 melanoma for entry N#CC1C(=O)NC23CCCCC2C1c1ccccc1O3 (centres undefined) , please look it up.
[A] > 100 µM

[Q] Lab note: need TGI with SK-MEL-28 melanoma for entry COc1cc(C(=O)C/C(CCC(=O)Nc2ccccc2[N+](=O)[O-])=N\NC(N)=O)ccc1O , please look it up.
[A] > 100 µM

[Q] Lab note: need TGI with SK-MEL-28 melanoma for entry CC(=O)C(CN(CC(C)C)CC(C)C)C(c1ccccc1)c1c(O)c2ccccc2oc1=O (centres undefined) , please look it up.
[A] > 100 µM
